Assignment: determine reported In Vitro Activity (% of Val^8-GLP-1(7-37)OH) for the given binders.
# Measured on: GLP-1 receptor
# Assay text: cell-based or functional assay
Ends that are not written are not given here.

Batch lookup, In Vitro Activity (% of Val^8-GLP-1(7-37)OH) per entry.
1. HVEGTFTSDVSSYLEGQAAKEFIEWLKNGGP-NH2 [HVEGTFTSDVSSYLEGQAAKEFIEWLKNGGP-NH2]
2. HGEGTFTSDLSSYLEEEAVRLFIEWLKNGGP-NH2 [HGEGTFTSDLSSYLEEEAVRLFIEWLKNGGP-NH2]
3. HGEGTFTSDLSKQMEEEAVRLFIAWLVKGRG
4. HAEGTFTSDVSKQLEEEAAKEFIAWLVKGRG
5. HGEGTFTSDLSKQMEEEAAKEFIEWLKNGGP-NH2 [HGEGTFTSDLSKQMEEEAAKEFIEWLKNGGP-NH2]
6. HVEGTFTSDVSSYLEGQAAKEFIAWLVKGRG [Val^8-GLP-1(7-37)OH]

["2.36 % of Val^8-GLP-1(7-37)OH", "5.07 % of Val^8-GLP-1(7-37)OH", "3.25 % of Val^8-GLP-1(7-37)OH", "2.15 % of Val^8-GLP-1(7-37)OH", "2.8 % of Val^8-GLP-1(7-37)OH", "1 % of Val^8-GLP-1(7-37)OH"]
